- Tested on: Aspergillus niger
- Method: Antifungal activity against Aspergillus niger NCIM 504 assessed as zone of inhibition at 80 ug/well incubated for 48 to 72 hrs by agar well diffusion method
- Format: functional
- Condition Details: read-out: IZ
Readout Label: zone of inhibition at 80 µg/disc
Just the number plus its unit, please.

[
  {
    "Smiles Notation": "Cc1nc(-c2ccc(Br)cc2)sc1-c1nn(-c2ccccc2)cc1-c1cn(Cc2ccccc2)nn1",
    "Target Entity": "Aspergillus niger",
    "zone of inhibition at 80 µg/disc": "13.4 mm"
  },
  {
    "Smiles Notation": "Cc1nc(-c2ccccc2)sc1-c1nn(-c2ccccc2)cc1-c1cn(Cc2ccc(Br)cc2)nn1",
    "Target Entity": "Aspergillus niger",
    "zone of inhibition at 80 µg/disc": "14 mm"
  },
  {
    "Smiles Notation": "Cc1ccc(Cn2cc(-c3cn(-c4ccccc4)nc3-c3sc(-c4ccc(Br)cc4)nc3C)nn2)cc1",
    "Target Entity": "Aspergillus niger",
    "zone of inhibition at 80 µg/disc": "12.4 mm"
  },
  {
    "Smiles Notation": "C[C@@H](c1nc(-c2ccc(C#N)cc2)cs1)[C@](O)(Cn1cncn1)c1ccc(F)cc1F",
    "Target Entity": "Aspergillus niger",
    "zone of inhibition at 80 µg/disc": "20.2 mm"
  }
]

// moving on: another record for zone of inhibition at 80 µg/disc
Identify the measured zone of inhibition at 80 µg/disc of "Cc1nc(-c2ccc(Cl)cc2)sc1-c1nn(-c2ccccc2)cc1-c1cn(Cc2ccc(Cl)cc2)nn1" for Aspergillus niger.
12.3 mm
